System: Bastardhunden
Assay procedure: Haemodynamic study of antianginal and antihypertensive action in anaesthetised mongrel dogs
Format: in vivo
Reported conditions: Dosis 1 mg/kg; dogs under pentobarbital or urethane-chloralose anaesthesia
Value type: BDm Δ (mittlerer peripherer Blutdruck) (mmHg)
Hi! Could you send only the number? It should be in mmHg, unit omitted.

Worked examples follow.
Name the reported BDm Δ (mittlerer peripherer Blutdruck) value associated with the molecule CCOC(=O)c1nonc1C(=O)NCCCN1CCN(c2ccccc2OC)CC1 [H5C2O- / [drawing] (r7)]
-30

Name the reported BDm Δ (mittlerer peripherer Blutdruck) value associated with the molecule O=C(NCCO)c1nonc1C(=O)NCCO [HOCH2CH2NH- / HOCH2CH2NH-]
-30

Further cases:
Name the reported BDm Δ (mittlerer peripherer Blutdruck) value associated with the molecule O=C(NC1CCCCC1)c1nonc1C(=O)NC1CCCCC1 [[drawing] / [drawing] (r3)]
-55

Name the reported BDm Δ (mittlerer peripherer Blutdruck) value associated with the molecule CCCNC(=O)c1nonc1C(=O)NCCC [CH3CH2CH2NH- / CH3CH2CH2NH-]
-35

---

Test system: Bastardhunden
Assay procedure: Haemodynamic study of antianginal and antihypertensive action in anaesthetised mongrel dogs
Assay type: in vivo
Reported conditions: Dosis 1 mg/kg; dogs under pentobarbital or urethane-chloralose anaesthesia
Value type: LVEDP Δ (linksventrikulärer enddiastolischer Druck) (mmHg)
Hi! Could you send only the number? It should be in mmHg, unit omitted.

Find LVEDP Δ (linksventrikulärer enddiastolischer Druck) (Bastardhunden) for the entry O=C(NC1CCCCC1)c1nonc1C(=O)NC1CCCCC1 [[drawing] / [drawing] (r3)]
-10

Further cases:
Find LVEDP Δ (linksventrikulärer enddiastolischer Druck) (Bastardhunden) for the entry O=C(NCCO)c1nonc1C(=O)NCCO
-1
